Origin of measurements: patent US20190153092A1

# Target Desc: T1, StrepII-tagged ROR1-extracellular domain (human) (human, UniProt Q01973 30-406)
# T1 construct: extracellular domain; also called ROR1-strep; soluble ROR1-strep
# T1 sequence (Q01973 other isoform, or with tags, fused parts or gaps): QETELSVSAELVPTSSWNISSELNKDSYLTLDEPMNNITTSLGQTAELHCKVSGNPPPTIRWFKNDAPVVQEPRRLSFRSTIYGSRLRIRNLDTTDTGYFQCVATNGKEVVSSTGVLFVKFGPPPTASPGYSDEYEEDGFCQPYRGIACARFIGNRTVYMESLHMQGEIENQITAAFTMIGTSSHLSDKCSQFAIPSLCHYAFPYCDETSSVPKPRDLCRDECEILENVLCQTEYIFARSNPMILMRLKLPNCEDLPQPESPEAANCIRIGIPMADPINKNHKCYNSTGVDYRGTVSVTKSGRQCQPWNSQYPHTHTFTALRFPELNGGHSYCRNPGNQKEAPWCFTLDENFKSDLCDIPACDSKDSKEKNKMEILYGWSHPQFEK
# Measurement Description: SPR (Biacore T200), purified mAb captured by goat anti-human Fc-gamma IgG, ROR1-strep 1.25 to 20 nM, 120 s association, 1000 s dissociation, 1:1 model
Readout Type: Kd (pM)

* huR12_11, humanized from R12 (antibody, human IgG1, V domains shown, Human IgG1 with lambda light chain) VH: QVQLVESGGALVQPGGSLTLSCKASGFDFSAYYMSWVRQAPGKGLEWIATIYPSSGKTYYAASVQGRFTISADNAKNTVYLQMNSLTAADTATYFCARDSYADDGALFNIWGQGTLVTVSS VL: QLVLTQSPSVSAALGSSAKITCTLSSAHKTDTIDWYQQLAGQAPRYLMYVQSDGSYEKRSGVPDRFSGSSSGADRYLIISSVQADDEADYYCGADYIGGYVFGGGTQLTVG | 61.6
* huR12_7, humanized from R12 (antibody, human IgG1, V domains shown, Human IgG1 with lambda light chain) VH: QVQLVESGGELVQPGGSLTLSCKASGFDFSAYYMSWVRQAPGKGLEWIATIYPSSGKTYYAASVQGRFTISADNAKNTVSLQMNSLTAADTATYFCARDSYADDGALFNIWGKGTLVTVSS VL: QLVLTQSPSVSAALGSSAKITCTLSSAHKTDTIDWYQQLAGQAPRYLMYVQSDGSYEKRSGVPDRFSGSSSGADRYLIISSVQADDEADYYCGADYIGGYVFGGGTQLTVLG | 51
* Chimeric mAb R12 (rabbit variable regions, human IgG1/lambda constant regions) (antibody, V domains shown, Full-length IgG1 with human gamma 1 and lambda constant regions; also called parental mAb R12) VH: QEQLVESGGRLVTPGGSLTLSCKASGFDFSAYYMSWVRQAPGKGLEWIATIYPSSGKTYYATWVNGRFTISSDNAQNTVDLQMNSLTAADRATYFCARDSYADDGALFNIWGPGTLVTISS VL: ELVLTQSPSVSAALGSPAKITCTLSSAHKTDTIDWYQQLQGEAPRYLMQVQSDGSYTKRPGVPDRFSGSSSGADRYLIIPSVQADDEADYYCGADYIGGYVFGGGTQLTVT | 427
* huR12_4, humanized from R12 (antibody, human IgG1, V domains shown, Human IgG1 with lambda light chain) VH: QVQLVESGGELVQPGGSLTLSCKASGFDFSAYYMSWVRQAPGKGLEWIATIYPSSGKTYYAASVQGRFTISADNAKNTVYLQMNSLTAADTATYFCARDSYADDGALFNIWGKGTLVTVSS VL: QLVLTQSPSVSAALGSSAKITCTLSSAHKTDTIDWYQQLAGQAPRYLMYVQSDGSYEKRSGVPDRFSGSASGADRYLAISRVQADDEADYYCGADYIGGYVFGGGTQLTVLG | 57.1
